These data points were gathered from PubChem BioAssay AID1159580.

Measured normalized growth of individual entries
Procedure Details: chemical genetic growth profiling, strain panel (AID 1159580);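 also: tested at 20 µM; growth read once vehicle control cultures reached saturation at 30 °C; 1 = growth at the plate median or of vehicle wells; lower values mean less growth of the strain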
Condition Details: S. cerevisiae deletion strains, growth OD, locus YHR142W, strain chs7, active compounds read low
Hit rate of the full screen: of about 5,500 compounds, about 2,000 (36%) were called active. Roughly 18% stayed inconclusive and do not appear here. This is one part of the list.
Reply with the value as a number alone.

CCCC1O[C@@H]2CC3C4CCC5=CC(=O)C=CC5(C)C4[C@@H](O)CC3(C)[C@]2(C(=O)CO)O1 (stereo partly specified); 1.02
CN/C(=C\[N+](=O)[O-])NCCSCc1ccc(CN(C)C)o1; 0.99
CC1(C)C(C(Cl)Cl)C2(Cl)C(Cl)C(Cl)C1(Cl)C2(Cl)Cl (stereo unspecified); 0.992
C=CC(C1=CC(=O)C(OC)=CC1=O)c1ccc(O)cc1 (stereo unspecified); 1.01
NC(=NCCC[C@H](N)C(=O)O)NC(CCC(=O)O)C(=O)O (stereo partly specified); 1.02

Could you now consider this next compound?
Prompt: // query normalized growth value for entry Nc1ccc([As](=O)(O)O)cc1
Response: 1.02

* * *

Procedure Details: chemical genetic growth profiling, strain panel (AID 1159580);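 also: tested at 20 µM; growth read once vehicle control cultures reached saturation at 30 °C; 1 = growth at the plate median or of vehicle wells; lower values mean less growth of the strain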
Condition Details: S. cerevisiae deletion strains, growth OD, locus YMR231W, strain pep5
In all, about 5,500 compounds went through this assay and about 2,000 (36%) were called active. About 18% were inconclusive and are not listed. Rule as the data show it: active = normalized growth mostly below about 0.91 (no sharp cut-off); inconclusive = no clear call, values can overlap the other calls; inactive = mostly above about 0.92. Some of the results follow.
Allowed answers: yes (active), no (inactive)

For orientation, consider the following solved cases.
C[n+]1cccc(C(=O)[O-])c1; no
O=C1CCCC2C3CC(CN12)[C@@H]1CCCCN1C3 (some centres undefined); no
CC(=O)c1c(O)c(C)c(O)c2c1OC1=CC(=O)C(C(C)=O)C(=O)C12C (centres undefined); yes

Now look at this entry.
Prompt: Each compound tested received a call. Report the one for CCOC(=O)c1oc2c(OC)c(O)cc(O)c2c(=O)c1-c1cc(OC)c(OC)c(OC)c1 .
Response: no

* * *

Procedure Details: chemical genetic growth profiling, strain panel (AID 1159580);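 also: tested at 20 µM; growth read once vehicle control cultures reached saturation at 30 °C; 1 = growth at the plate median or of vehicle wells; lower values mean less growth of the strain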
Condition Details: S. cerevisiae deletion strains, growth OD, locus YDR162C, strain NBP2, active compounds read low
Hit rate of the full screen: of about 5,500 compounds, about 2,000 (36%) were called active. Not shown: some 18% with an inconclusive outcome. The list shows a part of the results.
Measured normalized growth of individual entries
Reply with the value as a number alone.

A selection of reference data follows.
C=CC(C1=CC(=O)C(OC)=CC1=O)c1ccc(OC)cc1 (stereo unspecified); 0.801
C=C[C@](C)(O)CCC=C(C)C; 1
c1ccc2c(c1)cc1ccc3cccc4ccc2c1c34; 1.03
C=CC(C)(O)CC/C=C(\C)CCC=C(C)C (stereo unspecified); 0.92
CC(=O)Nc1ccc(S(=O)(=O)Nc2ccc([N+](=O)[O-])cc2)cc1; 1.01
CC(=O)O[C@@H]1C[C@@]2(C)[C@H](c3ccoc3)C[C@H]3O[C@]32[C@]2(C)C(=O)C(O)=C3C(C)(C)C(=O)C=C[C@]3(C)C12 (stereo partly specified); 0.658

Prompt: // query normalized growth value for entry Oc1c(I)cc(I)c2cccnc12
Response: 0.0632

Prompt: Moving on to the next compound: C=C[C@@H](C1=CC(=O)C(OC)=C(OC)C1=O)c1ccccc1
Response: 0.0631
